- system.tested: BRAF G466V (Homo sapiens, UniProt P15056, G466V)
- Construct: expressed in transfected cells
- Sequence (P15056 whole entry G466V): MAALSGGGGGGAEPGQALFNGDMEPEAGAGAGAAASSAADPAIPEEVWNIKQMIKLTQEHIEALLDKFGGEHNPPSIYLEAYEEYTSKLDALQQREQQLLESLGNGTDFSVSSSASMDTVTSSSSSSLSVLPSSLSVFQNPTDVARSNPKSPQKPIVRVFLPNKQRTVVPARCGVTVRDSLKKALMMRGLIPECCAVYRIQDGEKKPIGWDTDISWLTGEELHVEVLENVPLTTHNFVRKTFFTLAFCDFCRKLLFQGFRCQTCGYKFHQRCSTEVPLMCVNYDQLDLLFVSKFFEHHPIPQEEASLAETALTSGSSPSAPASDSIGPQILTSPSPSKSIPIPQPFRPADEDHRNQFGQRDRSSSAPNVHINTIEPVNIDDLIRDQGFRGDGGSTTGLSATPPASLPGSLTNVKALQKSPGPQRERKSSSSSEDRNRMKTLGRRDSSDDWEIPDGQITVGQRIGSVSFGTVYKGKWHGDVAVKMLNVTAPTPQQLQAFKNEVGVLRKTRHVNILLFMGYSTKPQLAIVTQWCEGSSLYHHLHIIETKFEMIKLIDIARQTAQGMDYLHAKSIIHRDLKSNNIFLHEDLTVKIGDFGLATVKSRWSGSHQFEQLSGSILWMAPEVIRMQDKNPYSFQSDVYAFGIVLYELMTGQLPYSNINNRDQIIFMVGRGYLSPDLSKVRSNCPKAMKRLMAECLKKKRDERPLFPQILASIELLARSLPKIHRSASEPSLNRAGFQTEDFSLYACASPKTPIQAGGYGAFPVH
- experimental.details: Cellular assay of target protein degradation, T-Rex 293 cells stably transfected with HA-BRAF G466V (HA immunofluorescence, high content imaging)
- Type: cell-based
- test.parameters: maximum degradation observed, T-Rex 293 HA-BRAF G466V
observed.property: Dmax

* O=C1CC[C@H](N2Cc3cc([C@H](O)CCN4CC5(C4)CN(c4ccc(-c6cnc7[nH]cc(C(=O)c8c(F)ccc(NS(=O)(=O)N9CC[C@@H](F)C9)c8F)c7c6)cc4)C5)ccc3C2=O)C(=O)N1 | 35 to 70%

Field: Dmax. Fill in for each record below.
1. N#Cc1cc(-c2cnc3[nH]cc(C(=O)c4c(F)ccc(NS(=O)(=O)N5CC[C@@H](F)C5)c4F)c3c2)ccc1N1CCC(CN2CCC(c3ccc4c(c3)CN(C3CCC(=O)NC3=O)C4=O)CC2)CC1 (some centres unmarked)
2. O=C1CCC(N2Cc3cc(OCCCCN4CCN(c5ncc(-c6cnc7[nH]cc(C(=O)c8c(F)ccc(NS(=O)(=O)N9CC[C@@H](F)C9)c8F)c7c6)cn5)CC4)ccc3C2=O)C(=O)N1 (some centres unmarked)

Result:
> 70%
> 70%

Would you mind listing Dmax for each of the following molecules?
1. O=C1CCC(N2Cc3cc(N4CCN(CCCC5CCN(c6ccc(-c7cnc8[nH]cc(C(=O)c9c(F)ccc(NS(=O)(=O)N%10CC[C@@H](F)C%10)c9F)c8c7)cc6)CC5)CC4)ccc3C2=O)C(=O)N1 (some centres unmarked)
2. O=C1CCC(N2Cc3ccc(C4CCN(CC5CCN(c6ccc(-c7cnc8[nH]cc(C(=O)c9c(F)ccc(NS(=O)(=O)N%10CC[C@@H](F)C%10)c9F)c8c7)cc6)CC5)CC4)cc3C2=O)C(=O)N1 (some centres unmarked)

Result:
1: > 70%; 2: > 70%

====

- system.tested: BRAF V600E (Homo sapiens, UniProt P15056, V600E)
- Construct: expressed in transfected cells
- Sequence (P15056 whole entry V600E): as the sequence (P15056 whole entry G466V) above, with V466G, V600E counted along it
- experimental.details: Cellular assay of target protein degradation, T-Rex 293 cells stably transfected with HA-BRAF_V600E (HA immunofluorescence, high content imaging)
- Type: cell-based
- test.parameters: maximum degradation observed, T-Rex 293 HA-BRAF V600E
observed.property: Dmax

Reference set (4 entries):
• O=C1CCC(N2Cc3cc(N4CC5(CN(CCOc6ccc(-c7cnc8[nH]cc(C(=O)c9c(F)ccc(NS(=O)(=O)N%10CC[C@@H](F)C%10)c9F)c8c7)cn6)C5)C4)ccc3C2=O)C(=O)N1 (some centres unmarked) [Compound 158] = 35 to 70%
• C[C@@H]1C[C@H](CN2CCC(c3ccc4c(c3)CN([C@@H]3CCC(=O)NC3=O)C4=O)CC2)CCN1c1ccc(-c2cnc3[nH]cc(C(=O)c4c(F)ccc(NS(=O)(=O)N5CC[C@@H](F)C5)c4F)c3c2)cc1 [Compound 242] = 35 to 70%
• O=C1CC[C@H](NC(=O)c2ccc(N3CC4(CN(CCc5ccc(-c6cnc7[nH]cc(C(=O)c8c(F)ccc(NS(=O)(=O)N9CC[C@@H](F)C9)c8F)c7c6)cc5)C4)C3)cc2F)C(=O)N1 [Compound 373] = 35 to 70%
• O=C1CC[C@@H](N2Cc3cc(C4CCN(CC5CCN(c6ccc(-c7cnc8[nH]cc(C(=O)c9c(F)ccc(NS(=O)(=O)N%10CC[C@@H](F)C%10)c9F)c8c7)cc6)CC5)CC4)ccc3C2=O)C(=O)N1 [Compound 161] = 35 to 70%

Moving on to the next compound.
Ask: Could you share which Dmax value was measured for O=C1CCN(c2ccc(N3CCN(CCc4ccc(-c5cnc6[nH]cc(C(=O)c7c(F)ccc(NS(=O)(=O)N8CC[C@@H](F)C8)c7F)c6c5)cc4)CC3)cc2F)C(=O)N1 [Compound 136] ?
Result: < 35%

====

- system.tested: BRAF V600E (Homo sapiens, UniProt P15056, V600E)
- Construct: expressed in transfected cells
- experimental.details: Cellular assay of target protein degradation, T-Rex 293 cells stably transfected with HA-BRAF_V600E (HA immunofluorescence, high content imaging)
- Format: cell-based
- test.parameters: maximum degradation observed, T-Rex 293 HA-BRAF V600E
Please go through the items and note down their Dmax.

Items follow; give Dmax for each.
1. O=C1CCC(N2Cc3cc(N4CCC(CN5CC(Cc6ncc(-c7cnc8[nH]cc(C(=O)c9c(F)ccc(NS(=O)(=O)N%10CC[C@@H](F)C%10)c9F)c8c7)cn6)C5)CC4)ccc3C2=O)C(=O)N1 (some centres unmarked) [Compound 307]
2. O=C1CCC(NC(=O)N2CCCc3c(C4CCN(CC5CCN(c6ccc(-c7cnc8[nH]cc(C(=O)c9c(F)ccc(NS(=O)(=O)N%10CC[C@@H](F)C%10)c9F)c8c7)cc6)CC5)CC4)ccnc32)C(=O)N1 (some centres unmarked) [Compound 364]
3. O=C1CCC(N2Cc3cc(C[C@H](O)CN4CC5(C4)CN(c4ccc(-c6cnc7[nH]cc(C(=O)c8c(F)ccc(NS(=O)(=O)N9CC[C@@H](F)C9)c8F)c7c6)cc4)C5)ccc3C2=O)C(=O)N1 (some centres unmarked) [Compound 130]
4. O=C1CCC(N2Cc3cc(N4CCC(CCCN5CCN(c6ccc(-c7cnc8[nH]cc(C(=O)c9c(F)ccc(NS(=O)(=O)N%10CC[C@@H](F)C%10)c9F)c8c7)cc6)CC5)CC4)ccc3C2=O)C(=O)N1 (some centres unmarked) [Compound 137]
5. O=C1CCC(N2Cc3cc(CCCCCN4CCN(c5ccc(-c6cnc7[nH]cc(C(=O)c8c(F)ccc(NS(=O)(=O)N9CC[C@@H](F)C9)c8F)c7c6)cc5)CC4)ccc3C2=O)C(=O)N1 (some centres unmarked) [Compound 64]

Result:
> 70%
35 to 70%
35 to 70%
35 to 70%
35 to 70%

====

- system.tested: BRAF G466V (Homo sapiens, UniProt P15056, G466V)
- Construct: expressed in transfected cells
- experimental.details: Cellular assay of target protein degradation, T-Rex 293 cells stably transfected with HA-BRAF G466V (HA immunofluorescence, high content imaging)
- Assay type: cell-based
- test.parameters: maximum degradation observed, T-Rex 293 HA-BRAF G466V
observed.property: Dmax

- CN(CCN1CCN(c2ccc(-c3cnc4[nH]cc(C(=O)c5c(F)ccc(NS(=O)(=O)N6CC[C@@H](F)C6)c5F)c4c3)cc2)CC1)[C@H]1C[C@@H](Oc2ccc3c(c2)CN(C2CCC(=O)NC2=O)C3=O)C1 (stereo partly drawn) [Compound 126]: 35 to 70%
- O=C1CCC(N2Cc3cc(CCCN4CC5(C4)CN(c4ccc(-c6cnc7[nH]cc(C(=O)c8c(F)ccc(NS(=O)(=O)N9CC[C@@H](F)C9)c8F)c7c6)cn4)C5)ccc3C2=O)C(=O)N1 (stereo partly drawn) [Compound 141]: > 70%
- O=C1CC[C@H](N2Cc3cc(N4CCC(CN5CCC6(CCN(c7ccc(-c8cnc9[nH]cc(C(=O)c%10c(F)ccc(NS(=O)(=O)N%11CC[C@@H](F)C%11)c%10F)c9c8)cc7F)CC6)C5)CC4)ccc3C2=O)C(=O)N1 [Compound 258]: 35 to 70%
- Cc1c(NS(=O)(=O)N2CC[C@@H](F)C2)ccc(F)c1C(=O)c1c[nH]c2ncc(-c3ccc(N4CCC(CN5CCC(c6ccc7c(c6)CN([C@H]6CCC(=O)NC6=O)C7=O)CC5)CC4)cc3)cc12 [Compound 253]: 35 to 70%
- O=C1CCC(N2Cc3cc(N4CCC(CN5CC[C@H]6[C@@H](C5)CN6c5ccc(-c6cnc7[nH]cc(C(=O)c8c(F)ccc(NS(=O)(=O)N9CC[C@@H](F)C9)c8F)c7c6)cc5)CC4)ccc3C2=O)C(=O)N1 (stereo partly drawn) [Compound 329]: > 70%
- O=C1CCC(N2Cc3cc(C4CCN(C[C@@H](O)Cc5ccc(-c6cnc7[nH]cc(C(=O)c8c(F)ccc(NS(=O)(=O)N9CC[C@@H](F)C9)c8F)c7c6)cc5)CC4)ccc3C2=O)C(=O)N1 (stereo partly drawn) [Compound 118]: > 70%
- O=C1CCC(N2Cc3cc(C4CCN(CC[C@@H]5CCN(c6ccc(-c7cnc8[nH]cc(C(=O)c9c(F)ccc(NS(=O)(=O)N%10CC[C@@H](F)C%10)c9F)c8c7)cc6)C5)CC4)ccc3C2=O)C(=O)N1 (stereo partly drawn) [Compound 216]: > 70%
- O=C1CC[C@H](NC(=O)c2ccc(N3CC4(CN(CC5CCN(c6ccc(-c7cnc8[nH]cc(C(=O)c9c(F)ccc(NS(=O)(=O)N%10CC[C@@H](F)C%10)c9F)c8c7)cc6)CC5)C4)C3)cn2)C(=O)N1 [Compound 345]: > 70%

We now examine a further compound.
Ask: # lookup: Dmax of O=C1CC[C@H](N2Cc3cc([C@@H](O)CCN4CCN(c5ccc(-c6cnc7[nH]cc(C(=O)c8c(F)ccc(NS(=O)(=O)N9CC[C@@H](F)C9)c8F)c7c6)cc5)CC4)c(F)cc3C2=O)C(=O)N1 [Compound 300]
Result: 35 to 70%
